Measured values drawn from paper PMC3343272 for this set.

- Tested Target: T1, S100A4, wild type, Ca^2+-bound dimer (recombinant) (UniProt P26447 1-101)
- T1 construct: also called WT; u-S100A4; source: recombinant, unlabeled and 13C,15N-labeled; purified
- Test Protocol: kinetic assays; kinetic assays similar to those of Badyal et al., 2011 (Figures S1I–S1L)
- Cond: both partners purified
Quantity Kind: Kd

The value of Kd measured for the binder QRELEDATETADAMNREVSSLKNKLRRGDLPFVVPRRMA (peptide, UniProt P35579 1897-1935, looked up, nonmuscle myosin IIA (NMIIA) heavy chain, residues Q1897-A1935; Unmodified (no fluorescent label); also called u-M39; source: synthetic peptide) [M39, nonmuscle myosin IIA heavy chain peptide (residues Q1897–A1935)] turned out to be ~0.1 nM
